- procedure_summary: Ratio of drug level in brain to plasma in mouse at 30 mg/kg, po after 60 mins
- Type: ADME, organism-based
- Set-up: dose 30 mg/kg, route oral
quantity_name: Kp at 1 h
Enter a number only.

Identify the reported Kp at 1 h for the following entry. `Cc1c(CN[C@H]2CC[C@@H](F)C2)nn(CCC#N)c1-c1cc(F)cc(F)c1`
1.84

----------
- procedure_summary: Volume of distribution at steady state in rat at 1 mg/kg, iv
- Type: ADME, organism-based
- Design: dose 1 mg/kg, route intravenous
- assay_conditions: in vivo, read-out: Vdss
quantity_name: Vd (L/kg)
Number in L/kg, nothing else.

Identify measured Vd corresponding to `Cc1c(CN[C@H]2CC[C@@H](F)C2)nn(CCC#N)c1-c1cc(F)cc(F)c1`
5.2

----------
- procedure_summary: Cmax in rat at 3 mg/kg, po
- Format: ADME, organism-based
- Parameters: dose 3 mg/kg, route oral
- assay_conditions: in vivo
quantity_name: Cmax
The reply must contain the numeric value and, after it, the unit.

Supply Cmax value. Item: `Cc1c(CN[C@H]2CC[C@@H](F)C2)nn(CCC#N)c1-c1cc(F)cc(F)c1`
400 nM

----------
- procedure_summary: Plasma clearance in dog at 1 mg/kg, iv
- Type: ADME, organism-based, Canis lupus familiaris
- Design: dose 1 mg/kg, route intravenous
quantity_name: clearance (mL/min/kg)
Expressed in mL/min/kg, but write only the number.

Let me know recorded clearance for `Cc1c(CN[C@H]2CC[C@@H](F)C2)nn(CCC#N)c1-c1cc(F)cc(F)c1` , thanks.
37

----------
- assay_target: Delta-type opioid receptor (Homo sapiens)
- Sequence (P41143 whole entry): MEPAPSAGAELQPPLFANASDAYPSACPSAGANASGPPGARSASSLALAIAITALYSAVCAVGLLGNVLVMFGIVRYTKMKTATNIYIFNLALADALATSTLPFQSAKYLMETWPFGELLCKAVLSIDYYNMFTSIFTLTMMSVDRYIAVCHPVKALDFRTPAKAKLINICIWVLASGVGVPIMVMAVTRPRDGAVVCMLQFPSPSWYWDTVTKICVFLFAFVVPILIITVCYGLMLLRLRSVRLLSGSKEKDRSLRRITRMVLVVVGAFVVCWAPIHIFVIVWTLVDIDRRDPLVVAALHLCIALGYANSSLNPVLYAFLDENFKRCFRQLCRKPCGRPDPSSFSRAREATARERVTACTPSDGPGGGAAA
- procedure_summary: Displacement of [3H]naltrindole from human cloned delta opioid receptor expressed in CHO cells
pIC50: −log10 of the molar value.
quantity_name: pIC50

Find the measured pIC50 of `Cc1c(CN[C@H]2CC[C@@H](F)C2)nn(CCC#N)c1-c1cc(F)cc(F)c1` with Delta-type opioid receptor (Homo sapiens) as test system.
< 5.00

----------
- procedure_summary: Ratio of drug level in brain to plasma in mouse at 10 mg/kg, po after 60 mins
- Assay type: ADME, organism-based
- Set-up: dose 10 mg/kg, route oral
quantity_name: Kp at 1 h
A bare number is all that is needed in reply.

Could you please provide reported Kp at 1 h for `Cc1c(CN[C@H]2CC[C@@H](F)C2)nn(CCC#N)c1-c1cc(F)cc(F)c1` ? Thanks!
1.62

----------
- Tested on: Brain
- procedure_summary: Drug level in mouse brain assessed per gram of tissue at 3 mg/kg, po after 60 mins
- Type: ADME, organism-based
- Set-up: dose 3 mg/kg, route oral
- assay_conditions: in vivo, 1 h
quantity_name: Drug uptake (nmol/g)
Give just the number in nmol/g; leave the unit off.

Lab note: Brain assay, enter Drug uptake for `Cc1c(CN[C@H]2CC[C@@H](F)C2)nn(CCC#N)c1-c1cc(F)cc(F)c1` here
0.035

----------
- assay_target: Nociceptin receptor (Homo sapiens, UniProt P41146)
- Sequence (P41146 whole entry): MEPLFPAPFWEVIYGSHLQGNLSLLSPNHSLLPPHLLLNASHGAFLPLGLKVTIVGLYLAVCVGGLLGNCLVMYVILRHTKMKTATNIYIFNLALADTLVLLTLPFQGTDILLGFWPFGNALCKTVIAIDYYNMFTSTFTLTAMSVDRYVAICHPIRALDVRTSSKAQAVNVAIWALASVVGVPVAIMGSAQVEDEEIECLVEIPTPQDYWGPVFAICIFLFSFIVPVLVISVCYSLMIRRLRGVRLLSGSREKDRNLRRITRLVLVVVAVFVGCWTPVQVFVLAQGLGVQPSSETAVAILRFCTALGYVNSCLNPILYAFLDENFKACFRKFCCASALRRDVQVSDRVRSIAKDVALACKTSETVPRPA
- procedure_summary: Displacement of [125I]Tyr14-NC/OFQ from ORL1 receptor
Recorded pIC50 values for a group of compounds are listed next.
Give only the number. pIC50 is defined as minus log10 of concentration in molar units.

Reference set (2 entries):
CCn1nc(CN[C@H]2CC[C@@H](F)C2)c(C)c1-c1cnc(C)c(F)c1 : 8.70
Cc1c(CN[C@H]2CC[C@@H](F)C2)nn(CCO)c1-c1cc(F)cc(F)c1 : 7.82

Okay, next one:
Query pIC50 for `Cc1c(CN[C@H]2CC[C@@H](F)C2)nn(C)c1-c1cc(F)cc(Cl)c1`
7.77

Every entry's value here was drawn from ChEMBL document CHEMBL1153056.
